Known melting point of a selection of compounds
readoutType: melting point

> print(dat)
                                    compound  observedmeasurement
 1              C[C@H]1NC(=O)O[C@H]1c1ccccc1        118 to 121 °C
 2  CC(C)(C(=O)O)C(O)c1ccccc1 (stereo unspecified)        134 to 137 °C
 3                   O=C=Nc1cccc(-n2cccc2)c1          46 to 47 °C
 4  O=[N+]([O-])c1ccc(-c2nnc3sc(/C=C/c4ccccc4)nn23)cc1        112 to 114 °C
 5  CC1CC(=O)Nc2ccccc2N1 (stereo unspecified)        180 to 183 °C
 6      O=C1CCC(c2ccc(NC(=O)C(Cl)Cl)cc2)=NN1        252 to 253 °C
 7  CCSc1ncccc1C(=O)NC(CCSC)C(=O)O (stereo unspecified)        121 to 122 °C
 8             O=C(CCCC(=O)c1ccccc1)c1ccccc1          64 to 67 °C
 9                    O=Cc1ccc(OC2CCOCC2)cc1          95 to 96 °C
10  COc1ccc(C(=O)C=Cc2ccc(-c3ccccc3[N+](=O)[O-])o2)cc1OC        119 to 120 °C
11            O=C(O)COc1cccc([N+](=O)[O-])c1        156 to 161 °C

---

readoutType: melting point

> print(dat)
                                    compound  observedmeasurement
 1                   S=C=Nc1ccc(-n2cccn2)cc1          97 to 99 °C
 2                      Brc1ccc(-c2ccco2)cc1          83 to 84 °C
 3                             NNC(=O)C(N)=O        216 to 218 °C
 4        Fc1ccc(-c2n[nH]c(=S)n2-n2cccc2)cc1               234 °C
 5                           O=C1CCC(=O)N1Br               177 °C
 6    CCc1cc(C(F)(F)F)c2c([nH]c3ccccc32)c1CO        150 to 153 °C
 7                   Nc1nc2ccccc2n1Cc1ccccc1        200 to 204 °C
 8              CCOc1ccc(N)c([N+](=O)[O-])c1        110 to 114 °C
 9  COc1ccc(/C(C(=O)c2ccccc2)=C2/C(=O)N(C(C)=O)c3ccccc32)cc1               180 °C
10                       CC(C)(O)CCc1ccccc1O        114 to 116 °C
11         N#Cc1c(-c2ccccc2)nn(-c2ccccc2)c1N               161 °C
12          CCOC(=O)c1cnc2cc(-c3cccs3)nn2c1C        151 to 153 °C
13  O=[N+]([O-])c1ccc(/C=N/n2c(S)nnc2C(F)(F)F)cc1               193 °C
14  OCC1OC(Oc2ccc3cc(Br)ccc3c2)C(O)C(O)C1O (stereo not drawn)        218 to 220 °C
15                          C[C@H](Cl)C(=O)O                 4 °C
16  Oc1ccc(C(c2ccccc2)(c2ccccc2)c2ccccc2)cc1        283 to 289 °C
17  COc1cc2c(c3oc(=O)c4c(c13)CCOC4=O)C1CCOC1O2 (stereo not drawn)        237 to 240 °C
18    Cc1c([N+](=O)[O-])cc(N)cc1[N+](=O)[O-]               171 °C
19                      COC(=O)c1ccc(CBr)cc1                56 °C
20  COC1C=CC23c4cc5c(cc4COC2(O)CN(C)C3C1)OCO5 (stereo not drawn)               210 °C
21    CCc1cccc(CC)c1NC(=O)CN(CC(=O)O)CC(=O)O        187 to 190 °C
22         Cc1cccc(Oc2ncccc2[N+](=O)[O-])c1C        210 to 213 °C
23       ClCc1ccc(OCc2ccccc2)c(OCc2ccccc2)c1          41 to 44 °C
24  COC1C(O)C(C)OC(OC2C(Oc3cccc4c(O)c5c(=O)oc6ccc(C)c7c(=O)oc(c34)c5c67)OC(C)C(O)C2O)C1O (stereo not drawn)               185 °C
25    CCOC(=O)CC1NCCNC1=O (stereo not drawn)        102 to 105 °C
26              O=C(O)c1csc(-c2cccc(Cl)c2)n1        206 to 207 °C
27  Cc1cccc(Cn2nc(C(C)(C)C)cc2-c2nnc(S)o2)c1        129 to 131 °C
28           OC1(c2ccccc2)c2ccccc2Oc2ccccc21        158 to 162 °C
